# Test system: HBV rcDNA
# assay.text: HepDE19 assay with bDNA quantitation of HBV rcDNA
# Type: cell-based, hepatitis B virus
# condition: HepDE19 cells, Tet-free medium, 7 day-incubation, rcDNA measured by Quantigene 2.0 bDNA assay, top concentration 25 μM; read-out: DE-19 bDNA EC50
Classify: yes (1) when EC50 is strictly less than 3000 nM; no (0) when EC50 is not.

Take a look at these entries with their results.
Cn1cc2c(c1C(=O)Nc1ccc(F)c(Cl)c1)CCC2NC(=O)OCC1(C(N)=O)CC(F)(F)C1 (single isomer, unassigned) [Compound 55]; no (0)
Cn1cnc(COC(=O)NC2CCc3c2c(Br)n(C)c3C(=O)Nc2ccc(F)c(Cl)c2)n1 (single isomer, unassigned) [Compound 47]; no (0)
Cn1cc2c(c1C(=O)Nc1ccc(F)c(Cl)c1)CCC2NC(=O)OCc1ccccn1 (stereo not shown) [Compound 7]; yes (1)

Lab note: EC50 threshold 3000 nM. Does this compound come in strictly under it? Cc1c2c(c(C(=O)Nc3ccc(F)c(Cl)c3)n1C)CCCC2NC(=O)OCc1ncn(C)n1 (single isomer, unassigned) yes (1)

Lab note: EC50 threshold 3000 nM. Does this compound come in strictly under it? Cn1nnc(COC(=O)NC2CCc3c2cn(C)c3C(=O)Nc2ccc(F)c(Cl)c2)n1 (stereo not shown) [Compound 143] yes (1)

Lab note: EC50 threshold 3000 nM. Does this compound come in strictly under it? CCn1cc2c(c1C(=O)Nc1ccc(F)c(Cl)c1)CCC2NC(=O)OCc1ncn(C)n1 (single isomer, unassigned) [Compound 19] yes (1)

Lab note: EC50 threshold 3000 nM. Does this compound come in strictly under it? Cn1cnc(COC(=O)NC2CCn3c(C(=O)Nc4ccc(F)c(Cl)c4)ccc32)n1 (single isomer, unassigned) [Compound 40] no (0)

----------
Item-by-item account of pEC50
# Test system: HBV rcDNA
# assay.text: HepDE19 assay with bDNA quantitation of HBV rcDNA
# Assay type: cell-based, hepatitis B virus
# condition: HepDE19 cells, Tet-free medium, 7 day-incubation, rcDNA measured by Quantigene 2.0 bDNA assay, top concentration 25 μM; read-out: DE-19 bDNA EC50
# From the text: HepDE19 Assay with bDNA Quantitation of HBV rcDNA: HepDE19 cell culture system is a HepG2 (human hepatocarcinoma) derived cell line that supports HBV DNA replication and cccDNA formation in a tetracycline (Tet)-regulated manner and produces HBV rcDNA and a detectable reporter molecule dependent on the production and maintenance of cccDNA (Guo, et al., 2007, J. Virol. 81:12472-12484). […]
Recall that pEC50 is obtained by taking minus log10 of the concentration measured in molar.

Check out these entries, answers already filled in.
Cn1c(Cl)c2c(c1C(=O)Nc1ccc(F)c(Cl)c1)CCCC2NC(=O)OCc1cn[nH]n1 (single isomer, unassigned) [Compound 136]; 5.92
Cn1cc2c(c1C(=O)Nc1ccc(F)c(Cl)c1)CCC2NC(=O)OCc1ncco1 (single isomer, unassigned) [Compound 35]; 5.74

What pEC50 appears in the records for this compound with HBV rcDNA? Cn1cc2c(c1C(=O)Nc1ccc(F)c(Cl)c1)CCC2NC(=O)OCC#CC1CC1 (single isomer, unassigned) [Compound 115] 5.27

----------
# Tested on: HBV rcDNA
# assay.text: HepDE19 assay with bDNA quantitation of HBV rcDNA
# Format: cell-based, hepatitis B virus
# condition: Hepatitis B virus, HepDE19, 168 h, HepDE19 cells, Tet-free medium, 7 day-incubation, rcDNA measured by Quantigene 2.0 bDNA assay, top concentration 25 μM; read-out: DE-19 bDNA EC50
pEC50: −log10 of the molar value.
I'd appreciate it if you could label each record using pEC50 and these ranges: bucket 1 = under 6, bucket 2 = from 6 up to 7, bucket 3 = 7 and over

Cn1ccc(COC(=O)NC2CCCc3c2cn(C)c3C(=O)Nc2ccc(F)c(Cl)c2)n1 (single isomer, unassigned); bucket 2

Hello team, could you let me know which band the following molecule falls into: Cn1cc2c(c1C(=O)Nc1ccc(F)c(Cl)c1)CCC2NC(=O)OCc1nn[nH]n1 (racemic) bucket 1

Hello team, could you let me know which band the following molecule falls into: Cn1cc2c(c1C(=O)Nc1ccc(F)c(Cl)c1)CCCC2NS(=O)(=O)C1CC1 (single isomer, unassigned) bucket 1

Hello team, could you let me know which band the following molecule falls into: Cn1cnc(COC(=O)NC2CCc3c2cn(C)c3C(=O)Nc2cc(F)c(F)c(F)c2)n1 (single isomer, unassigned) bucket 2

Hello team, could you let me know which band the following molecule falls into: Cn1c(C(=O)Nc2ccc(F)c(Cl)c2)c2c(c1C1CC1)C(NC(=O)OCc1nc[nH]n1)CC2 (stereo not shown) bucket 1

----------
Item-by-item account of EC50
# Tested on: HBV rcDNA
# assay.text: HepDE19 assay with bDNA quantitation of HBV rcDNA
# Format: cell-based, hepatitis B virus
# condition: Hepatitis B virus, HepDE19, 168 h, HepDE19 cells, Tet-free medium, 7 day-incubation, rcDNA measured by Quantigene 2.0 bDNA assay, top concentration 25 μM; read-out: DE-19 bDNA EC50
Please report the result as a number followed by the unit.

Check out these entries, answers already filled in.
Cn1cnc(COC(=O)NC2CCc3c2cn(C)c3C(=O)Nc2ccnc(C(F)F)c2)n1 (single isomer, unassigned) [Compound 81]; 600 nM
Cn1cnc(COC(=O)NC2CCc3c2cn(C)c3C(=O)Nc2ccc(F)c(F)c2)n1 (single isomer, unassigned) [Compound 64]; 410 nM

Data request, read-out EC50, for Cn1cnc(COC(=O)NC2CCc3c2cn(C)c3C(=O)Nc2ccc(F)c(C(F)(F)F)c2)n1 (single isomer, unassigned) [Compound 69] 280 nM

----------
Item-by-item account of EC50
# Test system: HBV rcDNA
# assay.text: HepDE19 assay with bDNA quantitation of HBV rcDNA
# Assay type: cell-based, hepatitis B virus
# condition: HepDE19 cells, Tet-free medium, 7 day-incubation, rcDNA measured by Quantigene 2.0 bDNA assay, top concentration 25 μM; read-out: DE-19 bDNA EC50
Report only the number, with the unit µM understood.

CCn1cc2c(c1C(=O)Nc1ccc(F)c(Cl)c1)CCC2NC(=O)OCc1ccn(C)n1 (single isomer, unassigned) [Compound 28]; 0.23

Data request, read-out EC50, for Cn1cnc(COC(=O)NC2CCc3c2c(Br)n(C)c3C(=O)Nc2ccc(F)c(Cl)c2)n1 (single isomer, unassigned) [Compound 48] 0.01

Data request, read-out EC50, for Cn1cnc(COC(=O)NC2CCCCc3c2cn(C)c3C(=O)Nc2ccc(F)c(Cl)c2)n1 (single isomer, unassigned) [Compound 89] 2.9

Data request, read-out EC50, for Cn1c(Cl)c2c(c1C(=O)Nc1ccc(F)c(Cl)c1)CCCC2NC(=O)OCc1nc[nH]n1 (single isomer, unassigned) [Compound 135] 0.18

Data request, read-out EC50, for Cn1cnc(COC(=O)NC2CCc3c2c(C2CC2)n(C)c3C(=O)Nc2ccc(F)c(Cl)c2)n1 (single isomer, unassigned) [Compound 91] 22

Data request, read-out EC50, for Cn1cc2c(c1C(=O)Nc1ccc(F)c(Cl)c1)CCC2NC(=O)OCCC#N (single isomer, unassigned) [Compound 50] 3

----------
# System: HBV rcDNA
# assay.text: HepDE19 assay with bDNA quantitation of HBV rcDNA
# Type: cell-based, hepatitis B virus
# condition: HepDE19 cells, Tet-free medium, 7 day-incubation, rcDNA measured by Quantigene 2.0 bDNA assay, top concentration 25 μM; read-out: DE-19 bDNA EC50
# From the text: HepDE19 Assay with bDNA Quantitation of HBV rcDNA: HepDE19 cell culture system is a HepG2 (human hepatocarcinoma) derived cell line that supports HBV DNA replication and cccDNA formation in a tetracycline (Tet)-regulated manner and produces HBV rcDNA and a detectable reporter molecule dependent on the production and maintenance of cccDNA (Guo, et al., 2007, J. Virol. 81:12472-12484). […]
measurement.type: log10 of EC50 (log10 of the value in nM)
Use the decimal logarithm of EC50 (nM).

Data request, read-out log10 of EC50, for Cn1cnc(COC(=O)NC2CCc3c2c(C2CC2)n(C)c3C(=O)Nc2ccc(F)c(Cl)c2)n1 (single isomer, unassigned) [Compound 90] 2.62

Data request, read-out log10 of EC50, for Cc1c2c(c(C(=O)Nc3ccc(F)c(Cl)c3)n1C)CCC2NC(=O)OCc1ncn(C)n1 (single isomer, unassigned) [Compound 82] 2.04

Data request, read-out log10 of EC50, for Cn1cc2c(c1C(=O)Nc1ccc(F)c(Cl)c1)CCC2NC(=O)OCc1cnco1 (single isomer, unassigned) [Compound 37] 3.41
